System: T47D-KBluc cells
Assay: cells
Settings: ERLUX
measuredParameter: Estrogenicity when tested alone (in words)

### Prompt Test system T47D-KBluc cells; read-out Estrogenicity when tested alone (in words); what value for CCCCOC(=O)c1ccccc1C(=O)OCc1ccccc1 [BBP, Butyl benzyl phthalate] ?
### Response estrogenic

### Prompt Test system T47D-KBluc cells; read-out Estrogenicity when tested alone (in words); what value for CCCCC(CC)COC(=O)c1ccccc1C(=O)OCC(CC)CCCC (stereo not shown) [DEHP, Di ethyl hexyl phthalate] ?
### Response no estrogenicity

### Prompt Test system T47D-KBluc cells; read-out Estrogenicity when tested alone (in words); what value for CCOC(=O)c1ccccc1C(=O)OCC [DEP, Di ethyl phthalate] ?
### Response estrogenic

### Prompt Test system T47D-KBluc cells; read-out Estrogenicity when tested alone (in words); what value for CCCCOC(=O)c1ccccc1C(=O)OCCCC [DBP, Di butyl phthalate] ?
### Response no estrogenicity

----------
System: T47D-KBluc cells
Assay: cells
Conditions: Homo sapiens, read-out: Concentration Response Function θ^∧ max
Measured Emax values are reported for all entries that follow.
Your answer should be a plain number; it is taken to be in %.

### Prompt Test system T47D-KBluc cells; read-out Emax; what value for O=C1OC[C@H](Cc2cccc(O)c2)[C@H]1Cc1cccc(O)c1 [Enterolactone] ?
### Response 104

### Prompt Test system T47D-KBluc cells; read-out Emax; what value for c1ccc2c(c1)-c1cccc3cccc-2c13 [Fluoranthene] ?
### Response 16

### Prompt Test system T47D-KBluc cells; read-out Emax; what value for CC(C)(c1ccc(O)cc1)c1ccc(O)cc1 [Bisphenol A] ?
### Response 144

### Prompt Test system T47D-KBluc cells; read-out Emax; what value for O=c1oc2cc(O)ccc2c2oc3cc(O)ccc3c12 [Coumestrol] ?
### Response 101
